The values you see were collected from a melting point compilation (Tetko et al.; mined from patent text by program, amines drawn as free bases though some values may be those of a salt).

Below, each of the compounds is paired with its reported melting point value.

{"compound": "COc1ccc(CCNC(=O)C=Cc2cccs2)cc1S(=O)(=O)NC(=S)NC(C)C", "melting point": "96 °C"}
{"compound": "CCCCCCCCCCOc1cnc(-c2ccc(C#CCCCC(C)O)cc2)nc1 (stereo unspecified)", "melting point": "82 to 83 °C"}
{"compound": "O=C1CNC(=O)C(CSC(c2ccccc2)(c2ccccc2)c2ccccc2)N1 (stereo unspecified)", "melting point": "225 to 227 °C"}
{"compound": "Nc1cccc2snnc12", "melting point": "67 °C"}
{"compound": "Cc1cc(Nc2cncc(Nc3ccc(Cl)c(C(=O)N(C)C)c3)n2)n[nH]1", "melting point": "213 to 215 °C"}
{"compound": "CCCCCCCCCCS(=O)(=O)Nc1cc(C(=O)Nc2ccccc2)ccc1OC", "melting point": "160 to 161 °C"}
{"compound": "Cc1nc(-c2ccccc2)nc(-c2cccc([N+](=O)[O-])c2)c1CO", "melting point": "177 to 178 °C"}
{"compound": "CCCCOC(=O)c1ccc(-c2nc(C(Cl)(Cl)Cl)nc(C(Cl)(Cl)Cl)n2)cc1", "melting point": "109 to 110 °C"}
{"compound": "CC(C)(CNC(=O)COCC(=O)OCOC(=O)Cc1ccccc1Nc1c(Cl)cccc1Cl)SN=O", "melting point": "66 °C"}
{"compound": "CCC(=O)[C@@H](NC(=O)OCc1ccccc1)C(C)C", "melting point": "49 to 50 °C"}
{"compound": "CC(C)=CCN1N=C(c2ccc(F)cc2)c2cc(Cl)ccc2CS1(=O)=O", "melting point": "168 to 169 °C"}
{"compound": "CN1CCN(c2cccc3ccc(NC(=O)c4ccccc4)cc23)CC1", "melting point": "173 to 175 °C"}
{"compound": "CCOC(=O)c1cc(C(=O)OCC)c2c(Cl)cc(Cl)cc2n1", "melting point": "104 to 106 °C"}
{"compound": "CCn1cc(Cc2ccc(C(=O)OC)cc2OC)c2cc(NC(=O)CC3CCCC3)ccc21", "melting point": "144 to 146 °C"}
{"compound": "CC(C)=CCc1c(O)ccc(C(=O)C=Cc2ccccc2)c1O", "melting point": "131 to 132 °C"}
{"compound": "O=c1ccc2ccc(CBr)cc2o1", "melting point": "172 to 176 °C"}
{"compound": "O=c1nc(-c2c(-c3ccccc3)nn3ccccc23)cc[nH]1", "melting point": "287 to 289 °C"}
{"compound": "CCOc1cc2c(c3c1OC(C)(C)C3)C(c1cccc(C(=O)NC)c1)=NC(C)(C)C2=O", "melting point": "233 to 235 °C"}
{"compound": "Cn1c(NC(=O)c2ccccc2)nc2ccccc2c1=O", "melting point": "185 to 187 °C"}
{"compound": "COC(=O)c1nsnc1N", "melting point": "142 to 143 °C"}
{"compound": "CCOC(C)n1cnc(-c2ccc(F)cc2)c1-c1ccc(F)cc1 (stereo unspecified)", "melting point": "105 to 107 °C"}

====

Below, each of the compounds is paired with its reported melting point value.
property: melting point

{"compound": "COC(=O)c1nc(-c2ccco2)cc(N)c1Cl", "obs value": "145 to 150 °C"}
{"compound": "COc1cccc(NC(=O)NCC(=O)N(CC(=O)OC(C)(C)C)c2ccccc2C(=O)c2ccccc2)c1", "obs value": "153 to 155 °C"}
{"compound": "Cc1ccc(Nc2ccccc2[N+](=O)[O-])c(C#N)c1", "obs value": "135 to 139 °C"}
{"compound": "CCOc1nc(C)nc(N2CCN(c3ccc(F)cc3)CC2)c1[N+](=O)[O-]", "obs value": "116 to 119 °C"}
{"compound": "N#Cc1ccccc1OCCCN1CCC(C(c2ccc(F)cc2)c2ccc(F)cc2)CC1", "obs value": "88.5 to 90 °C"}
{"compound": "Cc1nc(N)c(O)c(=O)[nH]1", "obs value": "> 300 °C"}
{"compound": "O=C1C(c2ccccc2)=C(c2ccc(Cl)cc2)C(=O)N1c1ccc(Cl)cc1", "obs value": "157 °C"}
{"compound": "COC(=O)C12COc3cc(F)ccc3N1N=C(C(=O)Nc1ccc(C(F)(F)F)cc1)C2 (centres undefined)", "obs value": "178 to 181 °C"}
{"compound": "CCOC(=O)CC(=O)c1cc(F)c(S(=O)c2ccccc2)nc1Nc1ccc(F)cc1F (centres undefined)", "obs value": "105 to 106 °C"}
